assay.text: physchem
experimental.conditions: 1% aqueous hpcd
observable: solubility at 84 h (µg/mL)
Numbers only, in µg/mL.

Lookup: Which solubility at 84 h is reported for this compound? O=C(O)CCCc1ccc(N(CCCl)CCCl)cc1 [Chlorambucil]
Found: 550

* * *

assay.text: Phase-solubility experiments in aqueous HPCD at 25±1°C
experimental.conditions: 50% w/w hpcd
Procedure: For comparison, the solubilities of the drugs in water were also determined. • Wavelength: 245 nm • Column: Waters µBondapak CN, 3.9 mm (id.) x 30 cm • Mobile phase: acetonitrile, acetic acid, water (60:1:39) containing 0.1% 1-hexasulfonic acid, sodium salt • Flow rate: 2.00 mL/min. • Wavelength: 263 nm • Column: ASI C18, 10 µm, 3.9 mm (i.d.) x 30 cm • Mobile phase: acetonitrile, water (55:45) • Flow rate: 1.00 mL/min. […]
# solubility >= 20 mg/mL gives TRUE, anything below gives FALSE

Use the examples below as a reference point.
>>> discrete_label("C#C[C@]1(O)CC[C@H]2[C@@H]3CCc4cc(O)ccc4[C@H]3CC[C@@]21C")
"TRUE"
>>> discrete_label("O=C1NC(=O)C(c2ccccc2)(c2ccccc2)N1")
"FALSE"
>>> discrete_label("C#C[C@]1(O)CC[C@H]2[C@@H]3CCc4cc(OC)ccc4[C@H]3CC[C@@]21C")
"FALSE"
>>> discrete_label("C[C@@H]1C[C@H]2[C@@H]3CCC4=CC(=O)C=C[C@]4(C)[C@@]3(F)[C@@H](O)C[C@]2(C)[C@@]1(O)C(=O)CO")
"TRUE"

Lookup: Dear colleague, could you confirm whether CC1=C(/C=C/C(C)=C/C=C/C(C)=C/CO)C(C)(C)CCC1 [All-trans-Retinol] has solubility at or above 20 mg/mL?
Found: FALSE
